biological target: FMRP S500D (UniProt Q06787 1-632, S500D); experiment: fluorescence titration (2AP); 150 mM KCl, 1 uM BSA; Fluorescence: 10 mM cacodylic acid pH 6.5, 150 mM KCl, 1 uM BSA, 200 nM RNA; EMSA: 0.5x TBE native gels at 4 C (5 mM KCl for PSD-95 RNAs), incubation at room te
I'd be grateful if you could share measured Kd for these entries.

Prompt line: What Kd value was documented for this binder, GGGAGGGAGGGUGGG (structured_RNA, A4 replaced by 2-aminopurine) [PSD-95 Q2 4-2AP] ?
Response line: 100 nM

Prompt line: Similarly, GGGAAAAGGGAGGGAUGGG (structured_RNA, A11 replaced by 2-aminopurine) [PSD-95 Q11234 11-2AP] ?
Response line: 66 nM
